The following compounds are listed with their measured Degradation Of PCBs values.
# System: Pseudomonas CH07
# Assay Notes: Degradation of PCB congeners of Clophen A-50 by Pseudomonas CH07 in seawater nutrient broth, GC-ECD analysis
# Conditions Used: 40 hrs incubation with Pseudomonas CH07, versus control
// units = %; emit number, no label

Known results for compounds:
>>> print(df.to_string())
                                     smi              readout  unit_descriptor  observed_result
0      Clc1ccc(-c2cc(Cl)c(Cl)cc2Cl)cc1Cl  Degradation Of PCBs                %            40.72
1        Clc1ccc(-c2ccc(Cl)c(Cl)c2)cc1Cl  Degradation Of PCBs                %            24.25
2  Clc1cc(Cl)c(-c2ccc(Cl)c(Cl)c2Cl)cc1Cl  Degradation Of PCBs                %            55.97

Could you share what Degradation Of PCBs was measured for `Clc1cc(Cl)c(-c2ccc(Cl)c(Cl)c2)c(Cl)c1` , tested on Pseudomonas CH07?
19.66

---

# System: Pseudomonas CH07
# Assay Notes: Degradation of PCB congeners of Clophen A-50 by Pseudomonas CH07 in seawater nutrient broth, GC-ECD analysis
# Conditions Used: 40 hrs incubation with Pseudomonas CH07, versus control
Readout: Degradation Of PCBs (%)
// units = %; emit number, no label

                                   compound              readout  unit_descriptor  observed_result
0  Clc1ccc(Cl)c(-c2c(Cl)c(Cl)cc(Cl)c2Cl)c1 [CB-151, 2,2′,3,5,5′,6-Hexachloro]  Degradation Of PCBs                %            37.32

Look up Degradation Of PCBs for this compound: Clc1ccc(-c2ccc(Cl)c(Cl)c2Cl)c(Cl)c1Cl [CB-128, 2,2′,3,3′,4,4′-Hexachloro]
64.33

Next up: Clc1ccc(-c2c(Cl)c(Cl)c(Cl)c(Cl)c2Cl)c(Cl)c1 [CB-181, 2,2′,3,4,4′,5,6-Heptachloro]
100

Next up: Clc1ccc(-c2ccc(Cl)c(Cl)c2Cl)cc1Cl [CB-105, 2,3,3′,4,4′-Pentachloro]
46.69

---

# Test system: Pseudomonas CH07
# Assay Notes: Degradation of PCB congeners of Clophen A-50 by Pseudomonas CH07 in seawater nutrient broth, GC-ECD analysis
# Conditions Used: incubation with Pseudomonas CH07 for 40 hrs; Clophen A-50 100 ppm in seawater nutrient broth
Readout: Conc. of PCBs in Test sol. (incubation) 40 hrs. (ng/mL)
// units = ng/mL; emit number, no label

Known results for compounds:
In [3]: df
Out[3]:
                                     smi  observed_result
0  Clc1cc(Cl)c(-c2ccc(Cl)c(Cl)c2)c(Cl)c1             6.48
1    Clc1ccc(-c2cc(Cl)c(Cl)c(Cl)c2)cc1Cl            00.00
2    Clc1c(Cl)c(Cl)c(-c2ccccc2)c(Cl)c1Cl             8.06

Look up Conc. of PCBs in Test sol. (incubation) 40 hrs. for this compound: `Clc1ccc(-c2ccc(Cl)c(Cl)c2)cc1Cl`
40.42

---

# Test system: Pseudomonas CH07
# Assay Notes: Degradation of PCB congeners of Clophen A-50 by Pseudomonas CH07 in seawater nutrient broth, GC-ECD analysis
# Conditions Used: 40 hrs incubation with Pseudomonas CH07, versus control
Readout: Degradation Of PCBs

                                        smi   measured_target              readout  observed_result
0       Clc1ccc(-c2cc(Cl)c(Cl)c(Cl)c2)cc1Cl  Pseudomonas CH07  Degradation Of PCBs             100%
1       Clc1ccc(Cl)c(-c2cc(Cl)c(Cl)cc2Cl)c1  Pseudomonas CH07  Degradation Of PCBs           20.19%
2       Clc1c(Cl)c(Cl)c(-c2ccccc2)c(Cl)c1Cl  Pseudomonas CH07  Degradation Of PCBs           20.04%
3   Clc1ccc(Cl)c(-c2cc(Cl)c(Cl)c(Cl)c2Cl)c1  Pseudomonas CH07  Degradation Of PCBs           55.38%
4  Clc1cc(Cl)c(-c2cc(Cl)c(Cl)c(Cl)c2Cl)cc1Cl  Pseudomonas CH07  Degradation Of PCBs           61.33%

// moving on: another record for Degradation Of PCBs
Look up Degradation Of PCBs for this molecule: `Clc1cc(Cl)c(-c2cccc(Cl)c2Cl)cc1Cl`
19.69%
